The reported numbers originate from patent US20250206761A1.

# Measured On: KRAS G12D binding to BRAF (Homo sapiens (Human), UniProt P01116+P62937, G12D)
# Sequence (P01116-2 other isoform, or with tags, fused parts or gaps G12D): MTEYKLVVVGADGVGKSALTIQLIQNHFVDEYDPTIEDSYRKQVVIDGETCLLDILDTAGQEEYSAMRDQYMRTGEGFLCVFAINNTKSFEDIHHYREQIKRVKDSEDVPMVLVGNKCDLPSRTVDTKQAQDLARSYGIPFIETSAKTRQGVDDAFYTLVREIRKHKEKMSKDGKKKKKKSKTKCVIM
# Sequence (P62937 whole entry): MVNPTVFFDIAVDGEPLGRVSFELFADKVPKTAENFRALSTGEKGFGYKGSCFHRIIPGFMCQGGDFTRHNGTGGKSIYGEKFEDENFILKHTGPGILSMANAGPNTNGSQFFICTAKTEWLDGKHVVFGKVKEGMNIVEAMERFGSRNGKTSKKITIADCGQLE
# Assay Details: KRAS-BRAF with CYPA (500 nM) interaction assay (TR-FRET), G12D
# From the text: In this example, TR-FRET was also used to measure the compound or compound-CYPA dependent disruption of the KRAS G12C-BRAF complex. This protocol was also used to measure disruption of KRAS G12D or KRAS G12V binding to BRAF by a compound of the invention, respectively. […] TR-FRET signal was read on a PHERstar FSX microplate reader (Ex320 nm, Em 665/615 nm). […]

| Compound | Unit Name | Limit Operator | IC50 |
| --- | --- | --- | --- |
| CO[C@@H](C)c1ncc(N2CCN(CC(F)(F)F)CC2)cc1-c1c2c3cc(c(F)cc3n1CC(F)(F)F)-c1csc(n1)C[C@H](NC(=O)[C@H](C(C)C)N1CC[C@]3(CCN(C(=O)[C@H](F)Cl)C3)C1=O)C(=O)N1CCC[C@H](N1)C(=O)OCC(C)(C)C2 (atropisomer, axis not shown; (M)) [Example 45] | µM | = | 4.97 |
| CCn1c(-c2cc(N3CCN(C)CC3)cnc2[C@H](C)OC)c2c3cc(c(F)cc31)-c1csc(n1)C[C@H](NC(=O)[C@H](C(C)C)N1CCC[C@]3(CCN(C(=O)[C@@H](F)Cl)C3)C1=O)C(=O)N1CCC[C@H](N1)C(=O)OCC(C)(C)C2 [Example 23] | µM | = | 2.08 |
| CO[C@@H](C)c1ncc(N2CCOCC2)cc1-c1c2c3cc(c(F)cc3n1CC(F)(F)F)-c1csc(n1)C[C@H](NC(=O)[C@H](C(C)C)N(C)C(=O)[C@H]1CCN(C(=O)[C@H](F)Cl)C1)C(=O)N1CCC[C@H](N1)C(=O)OCC(C)(C)C2 (atropisomer, axis not shown; (M)) [Example 24] | µM | > | 10 |
| CO[C@@H](C)c1ncc(N2CCN(C)CC2)cc1-c1c2c3cc(c(F)cc3n1CC(F)(F)F)-c1csc(n1)C[C@H](NC(=O)[C@H](C(C)C)N(C)C(=O)[C@H]1CCN(C(=O)[C@H](F)Cl)C1)C(=O)N1CCC[C@H](N1)C(=O)OCC(C)(C)C2 (atropisomer, axis not shown; (M)) [Example 2] | µM | = | 3.98 |
